Reference for the values: paper PMC2756588

Please provide measured SPOT intensity for the entries that follow.
System: Bem1-1, P29366
Sequence (P29366 55-141): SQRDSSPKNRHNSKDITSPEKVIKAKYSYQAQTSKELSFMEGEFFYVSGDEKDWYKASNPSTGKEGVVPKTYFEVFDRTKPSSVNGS
Procedure text: SPOT array
Recorded conditions: median of control spots 4282
Answers are plain numbers.

TKPTPPPKPSHLKPK: 0
QNTPPLPPKPKSPHL: 0
AGKRRLPLVRFKASD: 2
IKKRNKIRLPSGSPE: 1
GKFIPSRPAPKPPSS: 1
IPSRPAPKPPSSASA: 2

For every item in the list below, what is its measured SPOT intensity?
1. KKAPPPVVKPKPRNF
2. TPRLSLPRLPNKHHW
3. NLPKRKPPKLQGPFS
4. PPIPIVPSSPAPPLP
5. VLRFLGFPLPIFEKG
6. MPAPPPPPPPPPGAF

Reply:
1: 0; 2: 0; 3: 0; 4: 0; 5: 0; 6: 0

Report SPOT intensity for each item below.
1. VRTRRRPPPPPIPST
2. NTMKKRPAPPSLPSL
3. TPEIPPPLPPKIMVH

Reply:
1. 0
2. 0
3. 0
